Data credit: ChEMBL document CHEMBL1130825

Test system: HCC 2998
TEST_NAME: In vitro cytotoxicity against human colon cancer HCC 2998 cell line
Assay type: functional
Field: log10(GI50). Provide a value for each of the molecules that follow.
Please interpret these as log10 of GI50 where GI50 is in µM.

Q) Tell me the measured log10(GI50) of COC(=O)[C@@H]1[C@H](c2cc(OC)c(OC)c(OC)c2)c2cc3c(cc2C(=O)[C@H]1CO)OCO3 , please.
A) 1.03

Q) Lookup COC(=O)[C@@H]1C(c2cc(OC)c(OC)c(OC)c2)c2cc3c(cc2[C@@H]2OC(=O)OC[C@@H]12)OCO3 (some centres not stated)
A) 1.30

Q) Same lookup for COC(=O)[C@@H]1[C@H](c2cc(OC)c(O)c(OC)c2)c2cc3c(cc2[C@@H]2OC(=O)OC[C@@H]12)OCO3 , please.
A) 0.00

Q) Next record, please: COC(=O)[C@@H]1[C@H](c2cc(OC)c(OC)c(OC)c2)c2cc3c(cc2[C@H](O)[C@H]1CO)OCO3
A) -1.52

Q) Item: CCCOC(=O)[C@@H]1C(c2cc(OC)c(OC)c(OC)c2)c2cc3c(cc2[C@@H]2OC(=O)OC[C@@H]12)OCO3 (some centres not stated)
A) 0.30

Q) And for COc1cc([C@@H]2c3cc4c(cc3[C@@H](O[C@@H]3O[C@@H]5CO[C@@H](C)O[C@H]5[C@H](O)[C@H]3O)[C@H]3COC(=O)[C@H]23)OCO4)cc(OC)c1O [ETOPOSIDE] ?
A) 0.54

Q) Consider next the molecule CCOC(=O)[C@@H]1[C@H](c2cc(OC)c(OC)c(OC)c2)c2cc3c(cc2[C@H](O)[C@H]1CO)OCO3 in the same way.
A) 1.15
